Measured values drawn from PubChem BioAssay (NCI) for this set.

# Test system: SK-OV-3 ovarian
# Test description: NCI tumour cell line growth inhibition, 48 h; in the data active = GI50 below about 0.43 µM; inactive = the rest
*1 amine or outer side, *2 acyl side, *3 side chain or, on linkers, in order; H or OH if unused. Where a SMILES comes first, the peptide text is derived from it. [ ]: non-standard residue; d: D form. The star is where a group is joined. X12 = NCCCCC(N[*:1])C(=O)CN1CCCC1C(=O)[*:2]; Pentadecanoyl = CCCCCCCCCCCCCCC(=O)*
Labels: active, inactive

{"columns": ["Molecule", "Assigned class"],
 "data": [
  ["CC(=O)O[C@H]1Cc2c([nH]c3ccccc23)[C@@H](c2ccc(Cl)cc2)N1C(=O)CCNC(C)(C)C", "inactive"],
  ["CCc1cc(Nc2nccc(-c3c(-c4ccc(OC)c(C(=O)Nc5c(F)cccc5F)c4)nc4ccccn34)n2)c(OC)cc1N1CCC(N2CCN(S(C)(=O)=O)CC2)CC1", "inactive"],
  ["O=C(CN1CCN(c2cc3c(cc2F)c(=O)c(C(=O)O)cn3C2CC2)CC1)Nc1ccc(C(=O)/C=C/c2ccccc2)cc1", "inactive"],
  ["CCCCCCCCCCCCCCC(=O)NC(CCCCN)C(=O)CN1CCCC1C(=O)NCC(=O)NC(Cc1ccccc1)C(=O)N1CCCC1C(=O)NC(CO)C(=O)NC(Cc1ccc(O)cc1)C(=O)NC(CCCCN)C(=O)NC(CC(C)C)C(=O)NC(CCCN=C(N)N)C(=O)N1CCCC1C(=O)NCC(N)=O (stereo not drawn) (Pentadecanoyl-[X12]GFPSYKLRPG-NH2; configuration not given here)", "inactive"],
  ["CCN(CC)CCn1nc2c3c(cccc3c1=O)-c1ccccc1-2", "inactive"],
  ["COC(=O)C1=C(C)NC(C)=C(C(=O)OC)C1c1ccccc1[N+](=O)[O-]", "inactive"],
  ["CCOC(=O)Nc1ccc2nc(Sc3ccc(Cl)cc3)sc2c1", "inactive"],
  ["COc1cccc2c1C(=O)c1c(O)c3c(c(O)c1C2=O)C[C@@](O)(C(=O)CO)CC3OC1CC(NCCCCC(OC(C)=O)OC(C)=O)C(O)C(C)O1 (stereo partly drawn)", "active"]
]}

* * *

# Tested on: SK-MEL-28 melanoma
# Test description: NCI tumour cell line growth inhibition, 48 h
*1 amine or outer side, *2 acyl side, *3 side chain or, on linkers, in order; H or OH if unused. Where a SMILES comes first, the peptide text is derived from it. [ ]: non-standard residue; d: D form. The star is where a group is joined. X12 = NCCCCC(N[*:1])C(=O)CN1CCCC1C(=O)[*:2]; Pentadecanoyl = CCCCCCCCCCCCCCC(=O)*
This section presents compounds with their documented TGI values.

{"columns": ["Compound", "Target under test", "TGI"],
 "data": [
  ["CCCCCC(=O)OCC1(CO)C/C(=C/CC(C(C)C)C(C)C)C(=O)O1 (stereo unspecified)", "SK-MEL-28 melanoma", "> 75 µM"],
  ["O=C(N/N=C\\c1cc(Br)cc(Br)c1O)N/N=C/c1cc(Br)cc(Br)c1O", "SK-MEL-28 melanoma", "16.1 µM"],
  ["CC(C)N(C(=O)C12C3C4C5C3C1(C(=O)N(C(C)C)C(C)C)C5C42)C(C)C (stereo unspecified)", "SK-MEL-28 melanoma", "> 100 µM"],
  ["Cc1nc2ccccc2nc1N1CCCC1", "SK-MEL-28 melanoma", "> 100 µM"],
  ["CCN(CC)C(=O)c1ccc(C)c(N=NN(C)C)c1", "SK-MEL-28 melanoma", "> 100 µM"],
  ["O=C(O)CSc1nnc(COc2ccccc2)n1-c1ccccc1", "SK-MEL-28 melanoma", "> 100 µM"],
  ["COc1cc2cc(Oc3ccc(NC(=O)Nc4cc(C(F)(F)F)cc(C(F)(F)F)c4)cc3)c(C)nc2cc1OCCN1CCCCC1", "SK-MEL-28 melanoma", "3.07 µM"],
  ["CC(=O)OC1CC2C(C)(C)C(=O)C=C[C@]2(C)C2CCC3(C)C(=CCC3[C@H](CO)C[C@H](O)C(=O)C(C)(C)O)[C@]12C (stereo partly specified)", "SK-MEL-28 melanoma", "36.5 µM"],
  ["COc1cc(C2CC(c3cc(Cl)c(C)cc3O)=NN2c2ccc(S(N)(=O)=O)cc2)cc(OC)c1OC (stereo unspecified)", "SK-MEL-28 melanoma", "7.86 µM"],
  ["CCCCCCCCCCCCCCC(=O)NC(CCCCN)C(=O)CN1CCCC1C(=O)NCC(=O)NC(Cc1ccccc1)C(=O)N1CCCC1C(=O)NC(CO)C(=O)NC(Cc1ccc(O)cc1)C(=O)NC(CCCCN)C(=O)NC(CC(C)C)C(=O)NC(CCCN=C(N)N)C(=O)N1CCCC1C(=O)NCC(N)=O (stereo unspecified) (Pentadecanoyl-[X12]GFPSYKLRPG-NH2; configuration not given here)", "SK-MEL-28 melanoma", "60.6 µM"],
  ["c1cc[c]([Sn]([O]c2cccc3cccnc23)([c]2ccccc2)[c]2ccccc2)cc1", "SK-MEL-28 melanoma", "0.0299 µM"],
  ["C[C@@H]1CC(=O)[C@@]2(C)[C@](O)(CCC3O[C@]32C)[C@@]12CC(c1ccoc1)OC2=O (stereo partly specified)", "SK-MEL-28 melanoma", "> 100 µM"],
  ["CN(C)/C=C/C(=O)c1cccc(C(=O)/C=C/N(C)C)n1", "SK-MEL-28 melanoma", "> 100 µM"],
  ["COc1ccc2c(-c3csc(-c4c[nH]c5ccccc45)n3)c[nH]c2c1", "SK-MEL-28 melanoma", "> 81.6 µM"],
  ["N#CC(N)(C(=O)C(=O)NCCCNC(=O)C(=O)C(N)(C#N)c1ccc(Cl)cc1)c1ccc(Cl)cc1 (stereo unspecified)", "SK-MEL-28 melanoma", "> 100 µM"],
  ["COc1ccc(C(OCC2OC(n3ccc(Oc4c(F)c(F)c(F)c(F)c4F)nc3=O)CC2OP(OCCC#N)N(C(C)C)C(C)C)(c2ccccc2)c2ccc(OC)cc2)cc1 (stereo unspecified)", "SK-MEL-28 melanoma", "> 100 µM"]
]}

* * *

# System: PC-3 prostate
# Test description: NCI tumour cell line growth inhibition, 48 h
Below, each entry is listed with its recorded GI50.
Endpoint label: GI50

{"columns": ["Molecule", "Value"],
 "data": [
  ["CCCCOc1nc2ccccc2cc1C1CNC(=O)c2ccccc2N1 (stereo not drawn)", "2.95 µM"],
  ["N#CSc1cc(-c2nc3ccccc3o2)ccc1N", "12.5 µM"],
  ["CN(C)CC1CCCCCCCCCCC1=O (stereo not drawn)", "> 100 µM"],
  ["Cn1ccnc1C(=O)/C=C/c1ccc(CC(=O)Nc2cc(F)c(F)c(F)c2)cc1", "1.26 µM"],
  ["C=C1C(=O)O[C@H]2[C@H]1CC/C(COC(=O)c1ccc(Br)cc1)=C\\CC[C@@]1(C)O[C@@H]21", "1.69 µM"],
  ["CCn1c(-c2nonc2N)nc2c(C#CC(C)(C)O)ncc(OCC3CCNCC3)c21", "7.48 µM"],
  ["COC(=O)CCCCCCCCC(=O)c1c(C)[nH]c(/C=C2\\N=C(c3ccc[nH]3)C=C2OC)c1C", "4.88 µM"],
  ["CC[C@@]1(O)C(=O)N(CCN(C)C)Cc2c1cc1n(c2=O)Cc2cc3ccccc3nc2-1", "41.3 µM"]
]}

* * *

# System: SK-MEL-28 melanoma
# Test description: NCI tumour cell line growth inhibition, 48 h
This section presents compounds with their documented TGI values.

{"columns": ["Compound", "Target under test", "TGI"],
 "data": [
  ["CN(C)CC1CCCCCCCCCCC1=O (centres undefined)", "SK-MEL-28 melanoma", "> 100 µM"],
  ["O=C1/C(=C/Cc2ccco2)N=C(c2ccccc2)N1c1nc2c(Cl)cc(Cl)cc2s1", "SK-MEL-28 melanoma", "> 100 µM"],
  ["CCN1CCN(c2nc(NNC(=O)c3cccc(OC)c3)nc(N3CCN(C(c4ccccc4)c4ccccc4)CC3)n2)CC1", "SK-MEL-28 melanoma", "3.34 µM"],
  ["CC(C)(C)C1=CC(O)(c2c3ccccc3c(C3(O)C=C(C(C)(C)C)C(=O)C(C(C)(C)C)=C3)c3ccccc23)C=C(C(C)(C)C)C1=O", "SK-MEL-28 melanoma", "> 100 µM"],
  ["CCN(Cc1cccc(C)c1)c1ccc(CO)c(Cl)c1", "SK-MEL-28 melanoma", "39.5 µM"],
  ["CCOC(=O)c1sc2[n+](c1C)C(=O)/C(=C/c1ccccc1Cl)S2", "SK-MEL-28 melanoma", "47.3 µM"],
  ["CN1C(=O)[C@](C)(Cc2ccc(F)cc2)N(C(=O)OC(C)(C)C)[C@@H]1C(C)(C)C", "SK-MEL-28 melanoma", "> 100 µM"],
  ["NS(=O)(=O)c1ccc(NS(=O)(=O)c2ccc(NC(=O)N(c3ccccc3)c3ccccc3)cc2)cc1", "SK-MEL-28 melanoma", "> 100 µM"],
  ["Cc1c(-c2ccnc(N)n2)c2c(n1-c1ccccc1)C(=O)c1ccccc1C2=O", "SK-MEL-28 melanoma", "> 100 µM"]
]}
